# maps each entry to its growth
# Test system: IGROV1 ovarian
# Procedure summary: NCI-60 one-dose screen, 48 h (100 = growth as untreated, 0 = no growth, -100 = all killed)
# Protocol conditions: 10 µM unless noted
The panel holds about 83,000 compounds, 20% with a hit somewhere; the sample as a whole holds those more often.
Use % as the unit, but write only the number.

In the examples that follow, each entry is paired with its recorded growth.
INSERT INTO assay_data (structure, test_result) VALUES
  ('O=S(=O)(NCCNc1nccc(-c2c(-c3cccc(F)c3)nc3occn23)n1)c1ccc(C(F)(F)F)cc1', 77),
  ('Cc1cccc(C[C@H](NC(=O)Nc2ccc(C)cc2F)C(=O)N[C@@H]2C(=O)N3C[C@H](O)C[C@H]3C(=O)N3CCN(C)C[C@H]3C(=O)N[C@@H](C)C(=O)N3C[C@H](C)C[C@H]3C(=O)O[C@H]2C)c1', 52.3);

Quick note, growth for "Cc1cc(-c2ccc(N=Nc3c(S(=O)(=O)O)cc4cc(S(=O)(=O)O)cc(N)c4c3O)c(C)c2)ccc1N=Nc1cc(S(=O)(=O)O)c2ccccc2c1O" landed at 95.8

###

# Tested on: BT-549 breast
# Procedure summary: NCI-60 one-dose screen, 48 h
# Protocol conditions: 10 µM unless noted
This is part of a sample that, as a whole, favours compounds with a hit. Of some 83,000 tested, about 20% had one in any assay. The source made the active and inactive calls. Rule for the calls: active = growth percent below 10; inactive = the rest.
Lab note: assign the record to one of active, inactive

For orientation, consider the following solved cases.
INSERT INTO assay_data (compound, category_label) VALUES
  ('COc1ncc(-c2ccc3nc(N)n(-c4ccccc4C(F)(F)F)c(=O)c3c2)cc1S(=O)(=O)Nc1ccc(F)cc1F', 'inactive'),
  ('O=[N+]([O-])c1cccc(/C=C/c2ccc3ccccc3n2)c1', 'inactive'),
  ('CCN(CCNc1ccc(C)c2sc3cc(Cl)ccc3c(=O)c12)CC(C)O (centres undefined)', 'inactive');

From here, focus on the item given below.
Could you please tell me the result logged for "CC1(C)CC[C@]2(C(N)=O)CC[C@]3(C)C(=CC[C@@H]4[C@@]5(C)C/C(=C/c6cccnc6)C(=O)C(C)(C)[C@@H]5CC[C@]43C)[C@@H]2C1" in this assay?
active

###

# Tested on: NCI/ADR-RES ovarian
# Procedure summary: NCI-60 one-dose screen, 48 h (100 = growth as untreated, 0 = no growth, -100 = all killed)
# Protocol conditions: 10 µM unless noted
Compounds without any hit were thinned out: in the full panel of roughly 83,000, 20% have a hit. Activity calls are given as the source filed them. How the source made its calls: active means growth percent below 10; inactive means the rest.
Measured attribute: growth

INSERT INTO measurements (compound, measured_attribute, test_result) VALUES
  ('COc1ccc(C2CC(c3ccc4ccccc4c3)=NN2c2nc(O)c(C3=c4cc(OC)ccc4=NC3=O)s2)cc1 (stereo not drawn)', 'growth', '57% (inactive)'),
  ('CCOC(CNC(=O)c1cccc([N+](=O)[O-])c1)OCC', 'growth', '97.9% (inactive)'),
  ('C[C@@H]1C[C@H]2C(=O)O[C@@H](C)[C@H](NC(=O)[C@H](Cc3cc(F)cc(F)c3)NC(=O)Nc3ccc(C4CC4)cc3F)C(=O)N3CCC[C@H]3C(=O)N3CCCC[C@H]3C(=O)N[C@@H](C)C(=O)N2C1', 'growth', '14.9% (inactive)'),
  ('COc1ccc(C(=O)CSc2nnc(-c3cc(-c4ccccc4)nc4ccccc34)o2)cc1', 'growth', '103% (inactive)'),
  ('N#CC1C(=O)NC(c2ccccc2[N+](=O)[O-])c2sc3c(F)cccc3c21 (stereo not drawn)', 'growth', '68.5% (inactive)'),
  ('CCOC(=O)c1c[nH]c2cc(OCC3CC3)c(OCC3CC3)cc2c1=O', 'growth', '111% (inactive)'),
  ('O=C(CCNCc1ccccc1)c1ccccc1', 'growth', '105% (inactive)'),
  ('Cc1cccc(C[C@H](NC(=O)Nc2ccc(Cl)cc2F)C(=O)N[C@@H]2C(=O)N3C[C@H](OC(=O)CCN(C)C)C[C@H]3C(=O)N3CCCC[C@H]3C(=O)N[C@@H](C)C(=O)N3C[C@H](C)C[C@H]3C(=O)O[C@H]2C)c1', 'growth', '94.9% (inactive)'),
  ('COC(=O)[C@@H](NC(=O)NC(=O)NC(=O)CI)C(C)C', 'growth', '101% (inactive)'),
  ('CCN=C1C=CC(=C(c2ccc(N(CC)CC)cc2)c2ccc(N(CC)CC)cc2)c2ccccc21', 'growth', '-16.3% (active)');

Quick note, growth for "CN(C)C(=S)Sc1ccc([N+](=O)[O-])cc1[N+](=O)[O-]" landed at 40.8% (inactive)

Quick note, growth for "O=C1COCCN1c1ccc(NCc2cn(Cc3cccc4ccccc34)c3ccccc23)cc1" landed at 78.2% (inactive)

Quick note, growth for "COc1ccc(-c2cc(-c3ccc(Cl)cc3)nc(NCCCCNc3ccnc4cc(Cl)ccc34)n2)cc1" landed at 72.2% (inactive)

Quick note, growth for "O=C(NNc1ccc(-c2ccccc2)nn1)c1ccccc1" landed at 102% (inactive)

Quick note, growth for "O=C1COCCN1c1ccc(Nc2nc(Cl)nc(N3CCOCC3)n2)cc1" landed at 97.6% (inactive)

###

# maps each entry to its growth
# System: SK-MEL-2 melanoma
# Procedure summary: NCI-60 one-dose screen, 48 h (100 = growth as untreated, 0 = no growth, -100 = all killed)
# Protocol conditions: 10 µM unless noted
Compounds without any hit were thinned out: in the full panel of roughly 83,000, 20% have a hit. Active and inactive are the calls of the source. How the source made its calls: active means growth percent below 10; inactive means the rest.

In the examples that follow, each entry is paired with its recorded growth.
INSERT INTO measurements (structure, test_result) VALUES
  ('N=C(N)c1ccc(-c2ccc(-c3ccc(-c4cccs4)s3)s2)cc1F', '114% (inactive)'),
  ('CCOc1ccc(/C=C(\C#N)c2cc3ccccc3[nH]2)cc1', '36.1% (inactive)'),
  ('Cc1ccc(N)c(O)c1', '100% (inactive)'),
  ('O=C1NC(=O)c2cc([N+](=O)[O-])cc3cccc1c23', '107% (inactive)'),
  ('C=C(C)[C@@H]1CC[C@]2(C(=O)OC)CC[C@]3(C)[C@H](CC[C@@H]4[C@@]5(C)CC/C(=N\OCCC(=NCCC#N)NOCCC#N)C(C)(C)[C@@H]5CC[C@]43C)[C@@H]12', '36.2% [100 µM] (inactive)');

Quick note, growth for "CC(=O)Nc1ccc(C=Nc2ccc3ccccc3c2)cc1" landed at 121% (inactive)

Quick note, growth for "COc1cc(OC)c(/C=C/C(=O)c2c(N)cc(OC)cc2OC)c(OC)c1" landed at 12.4% (inactive)

Quick note, growth for "CCOC(=O)c1nc2c3ccccc3ccn2c1C(=O)OC" landed at 102% (inactive)

Quick note, growth for "O=C(N=c1n(-c2ccccc2)nc2n1CCN2C1=NCCN1)c1ccc(Cl)cc1" landed at 106% (inactive)

Quick note, growth for "O=[N+]([O-])c1ccc(O)c(-c2nc3ccccc3s2)c1" landed at 99% (inactive)

###

# Tested on: NCI/ADR-RES ovarian
# Procedure summary: NCI-60 one-dose screen, 48 h
# Protocol conditions: 10 µM unless noted
The panel holds about 83,000 compounds, 20% with a hit somewhere; the sample as a whole holds those more often. Activity calls are given as the source filed them. The calls were made as follows: active = growth percent below 10; inactive = the rest.
Lab note: assign the record to one of t (active), f (inactive)

INSERT INTO measurements (compound, category_label) VALUES
  ('COc1cc(Cl)cc(-c2nn(C(=O)NS(=O)(=O)c3ccccc3)cc2-c2ccncc2)c1', 'f'),
  ('O=C(Nc1ccccc1)Nc1ccc(C(=O)/C=C/c2ccc(N3CCCC3)cc2)cc1', 'f');

Could you please tell me the result logged for "O=C(O)c1cn(C2CC2)c2cc(N3CCN(Cc4c(O)ccc5ccccc45)CC3)c(F)cc2c1=O" in this assay?
f

Could you please tell me the result logged for "C[n+]1c2ccccc2nc2c(N)cc(N)cc21" in this assay?
f

Could you please tell me the result logged for "Cn1cc(-c2noc(C(=O)c3cn(C)c4ncc(Br)cc34)n2)c2ccccc21" in this assay?
f

Could you please tell me the result logged for "COc1ccc(N(c2nc(-c3ccc([N+](=O)[O-])cc3)cs2)C(C)C)cc1" in this assay?
f

Could you please tell me the result logged for "O=C(O)c1cc([N+](=O)[O-])ccc1Br" in this assay?
f

###

# System: NCI/ADR-RES ovarian
# Procedure summary: NCI-60 one-dose screen, 48 h (100 = growth as untreated, 0 = no growth, -100 = all killed)
# Protocol conditions: 10 µM unless noted
# Method: Growth inhibition of the NCI/ADR-RES human […] tumor cell line is measured as a screen for anti-cancer activity. Cells are grown in 96 well plates and exposed to the test compound for 48 hours. Compounds are tested at a single concentration, which is 10^-5 M for most compounds. The reported endpoint is percent growth (GI% or GIPRCNT), where numbers from 0 - 100% represent growth inhibition, and numbers from -100% - 0 represent cell death. For example, a value of 40 represents 60% growth inhibition. […]
This is part of a sample that, as a whole, favours compounds with a hit. Of some 83,000 tested, about 20% had one in any assay. Active and inactive are the calls of the source. Rule for the calls: active = growth percent below 10; inactive = the rest.
# maps each entry to its growth

INSERT INTO assay_data (molecule, test_result) VALUES
  ('Brc1ccc2c(c1)CN(C1CCCCC1)CO2', '97.5% (inactive)'),
  ('CC1(C)S[C@@H]2[C@H](NC(=O)[C@H](C(=O)O)c3cccs3)C(=O)N2[C@H]1C(=O)O', '102% (inactive)'),
  ('O=c1c2c3c(sc2n2cnnc2n1Cc1ccccc1)CCCC3', '96.9% (inactive)'),
  ('Nc1cc(N)c(N=Nc2ccc(S(=O)(=O)O)cc2)cc1N=Nc1ccc(-c2ccc(N=Nc3ccc(O)c(C(=O)O)c3)cc2)cc1', '98.9% (inactive)'),
  ('O=C(Nc1cccc(F)c1)c1cc(=O)[nH]c2cc(Br)ccc12', '53.2% (inactive)'),
  ('C=C(C)[C@@H]1CC[C@]2(C)[C@H](C(=O)C=C3[C@@H]4C[C@](C)(C(=O)N5CCN(C)CC5)CC[C@]4(C)CC[C@]32C)[C@@]1(C)CCC#N', '-81.3% [100 µM] (active)'),
  ('CC(C)(C)c1cc(C(=O)N2CCC(C(=O)NCCN)CC2)cc(C(C)(C)C)c1', '104% (inactive)'),
  ('O=C(Nc1cccnc1)c1ccc2ccc3ccc(C(=O)Nc4cccnc4)nc3c2n1', '79.8% (inactive)'),
  ('CCOC(=O)c1nn(C2CCCCO2)c2ccc(NS(=O)(=O)c3ccc(C)cc3)cc12 (centres undefined)', '99.6% (inactive)'),
  ('CCN(CC)c1ccc2cc(C(Nc3ccc(Cl)cc3)c3nnnn3C(C)(C)C)c(=O)oc2c1 (centres undefined)', '97.7% (inactive)');

Quick note, growth for "CC(C)CSc1ncnc2nc[nH]c12" landed at 100% (inactive)

Quick note, growth for "CCOC(=O)Nc1ccc2c(c1)/C(=N\NC(=S)NC)c1ccccc1-2" landed at 76.7% (inactive)

Quick note, growth for "c1ccc2c(c1)CN(CCCN1CCOCC1)C2" landed at 98.7% (inactive)
